Target: Cytochrome P450 2D6 (Homo sapiens)
Experiment: Cytochrome P450 family 2 subfamily D member 6 (CYP2D6) small molecule antagonists: luciferase biochemical (cell-free) qHTS assay (AID 1645840); further: nearly all actives have a fitted effect of over 55% in size
Conditions: P450-Glo CYP2D6 enzyme, luciferin luminescence, 1 h; series mostly up to 57.4 µM
From the text: National Center for Advancing Translational Sciences [NCATS] Assay Overview: Cytochrome P450 (CYP) enzymes are membrane-bound hemeproteins that play a key role in metabolism of drugs and xenobiotics. Assaying the effect of chemicals on CYP isozymes is useful to minimize the adverse drug reactions and toxicities in drug development process. […] The luciferin products formed are detected with a luciferin detection reagent, and the amount of light produced is proportional to CYP activity. […]
Records with an inconclusive call do not appear. Calls of active or inactive are those of the source. The call rests on the fitted dose curve; in most records, active means well fitted inhibition curve with a large enough effect in the repeat runs; inconclusive means weak or mixed curves; inactive means flat fitted curve, though single readings scatter.
Choose the fitting class; nothing outside active, inactive is accepted.

{"columns": ["Compound", "Label value"],
 "data": [
  ["CS(=O)(=O)c1cccc(CNc2nc(Nc3ccc4c(c3)CCC(=O)N4)ncc2C(F)(F)F)c1", "inactive"],
  ["CC(C[N+](C)(C)C)OC(N)=O (stereo unspecified)", "inactive"],
  ["Cc1ccc(N(CC2=NCCN2)c2cccc(O)c2)cc1", "active"],
  ["O=C1CCC(N2C(=O)c3ccccc3C2=O)C(=O)N1 (stereo unspecified)", "active"]
]}

Ask: Test call for this compound, please: CCOc1ccn(-c2ccc(F)cc2)c(=O)c1C(=O)Nc1ccc(Oc2ccnc(N)c2Cl)c(F)c1
Reply: inactive

Ask: How was O=C(Nc1cccnc1)N1CCC(Cc2cccc(Oc3ccc(C(F)(F)F)cn3)c2)CC1 classified in this test?
Reply: active

###

Tested on: AA1029
Test: qHTS profiling for inhibitors of Plasmodium falciparum proliferation (AID 504749); further: nearly all actives have a fitted effect of over 60% in size
Conditions: P. falciparum in erythrocytes, SYBR Green DNA, 72 h; series mostly up to 28.7 µM
Results filed as inconclusive are left out. Calls of active or inactive are those of the source. The call rests on the fitted dose curve; in most records, active means well fitted inhibition curve with a large enough effect; inconclusive means small, poorly fitted or top-dose-only effect; inactive means flat fitted curve, though single readings scatter.
Write down the outcome that applies. Available outcomes: active, inactive

Check out these entries, answers already filled in.
{"columns": ["Compound", "Label value"],
 "data": [
  ["Cc1[nH]c(=O)c(C#N)cc1-c1ccncc1", "inactive"],
  ["Cc1ccc(N(CC2=NCCN2)c2cccc(O)c2)cc1", "inactive"],
  ["N[C@@H]1CONC1=O", "inactive"],
  ["N#Cc1ccc(C(c2ccc(C#N)cc2)n2cncn2)cc1", "inactive"],
  ["Cn1cnc([N+](=O)[O-])c1Sc1ncnc2nc[nH]c12", "inactive"]
]}

Ask: Entry CC(C)NCC(O)COc1ccc(COCCOC(C)C)cc1 (stereo unspecified) : call = ?
Reply: inactive

Ask: Record lookup: outcome of this test for NC[C@H](O)c1ccc(O)c(O)c1 ?
Reply: inactive

Ask: Dear colleague, could you share the recorded outcome for Cc1oncc1C(=O)Nc1ccc(C(F)(F)F)cc1 when you have a moment?
Reply: inactive

###

Experiment: Quantitative High-Throughput drug screen in 47 multiple myeloma cell lines against the NCATS MIPE library collection: KMS20_JCRB cell viability assay (AID 1918973); further: nearly all actives have a fitted effect of over 45% in size
Conditions: CellTiter-Glo ATP, 48 h; series mostly up to 45.8 µM
Results filed as inconclusive are left out. The source made the active and inactive calls. Calls come from the whole dose curve; as a rule, active = well fitted cell-killing curve with a large enough effect; inconclusive = small, poorly fitted or top-dose-only effect, or effect the other way; inactive = no such curve, though single readings can be large or run the other way.
A correct response names exactly one class from active, inactive

Ask: For this compound, state the assay outcome: CN1CCN(CCCN2c3ccccc3Sc3ccc(C(F)(F)F)cc32)CC1
Reply: active

Ask: Called result for Cc1c(CN2CCN(C(=O)C(C)C)CC2)sc2c(N3CCOCC3)nc(-c3cnc(N)nc3)nc12
Reply: active

Ask: Look up the recorded call for COc1ccc(CC2=NN3C([C@@H](CCc4ccccc4)[C@@H](C)O)=NC(C)C3C(=O)N2)cc1OC (some centres not stated) in this test.
Reply: inactive

Ask: Record lookup: outcome of this test for O=c1n(CCCN2CCN(c3cccc(Cl)c3)CC2)nc2ccccn12 ?
Reply: inactive

Ask: Query: recorded result category for Cn1c(=O)c(F)c(Nc2ccc(I)cc2F)c2c(=O)n(C[C@@H](O)CO)cnc21 in this test
Reply: active

Ask: Give the logged outcome of this assay for the following compound: CO[C@@H]1[C@H](N(C)C(=O)c2ccccc2)C[C@H]2O[C@]1(C)n1c3ccccc3c3c4c(c5c6ccccc6n2c5c31)C(=O)NC4
Reply: active

Ask: I'd appreciate the recorded outcome for O=C(O)[C@@H](c1ccc(OCc2ccc3ccccc3n2)cc1)C1CCCC1 from this test.
Reply: inactive
